Kindly state hERG/CHK1 for each of the entries shown.
Target: hERG current (Homo sapiens (Human))
Sequence (Q12809 whole entry): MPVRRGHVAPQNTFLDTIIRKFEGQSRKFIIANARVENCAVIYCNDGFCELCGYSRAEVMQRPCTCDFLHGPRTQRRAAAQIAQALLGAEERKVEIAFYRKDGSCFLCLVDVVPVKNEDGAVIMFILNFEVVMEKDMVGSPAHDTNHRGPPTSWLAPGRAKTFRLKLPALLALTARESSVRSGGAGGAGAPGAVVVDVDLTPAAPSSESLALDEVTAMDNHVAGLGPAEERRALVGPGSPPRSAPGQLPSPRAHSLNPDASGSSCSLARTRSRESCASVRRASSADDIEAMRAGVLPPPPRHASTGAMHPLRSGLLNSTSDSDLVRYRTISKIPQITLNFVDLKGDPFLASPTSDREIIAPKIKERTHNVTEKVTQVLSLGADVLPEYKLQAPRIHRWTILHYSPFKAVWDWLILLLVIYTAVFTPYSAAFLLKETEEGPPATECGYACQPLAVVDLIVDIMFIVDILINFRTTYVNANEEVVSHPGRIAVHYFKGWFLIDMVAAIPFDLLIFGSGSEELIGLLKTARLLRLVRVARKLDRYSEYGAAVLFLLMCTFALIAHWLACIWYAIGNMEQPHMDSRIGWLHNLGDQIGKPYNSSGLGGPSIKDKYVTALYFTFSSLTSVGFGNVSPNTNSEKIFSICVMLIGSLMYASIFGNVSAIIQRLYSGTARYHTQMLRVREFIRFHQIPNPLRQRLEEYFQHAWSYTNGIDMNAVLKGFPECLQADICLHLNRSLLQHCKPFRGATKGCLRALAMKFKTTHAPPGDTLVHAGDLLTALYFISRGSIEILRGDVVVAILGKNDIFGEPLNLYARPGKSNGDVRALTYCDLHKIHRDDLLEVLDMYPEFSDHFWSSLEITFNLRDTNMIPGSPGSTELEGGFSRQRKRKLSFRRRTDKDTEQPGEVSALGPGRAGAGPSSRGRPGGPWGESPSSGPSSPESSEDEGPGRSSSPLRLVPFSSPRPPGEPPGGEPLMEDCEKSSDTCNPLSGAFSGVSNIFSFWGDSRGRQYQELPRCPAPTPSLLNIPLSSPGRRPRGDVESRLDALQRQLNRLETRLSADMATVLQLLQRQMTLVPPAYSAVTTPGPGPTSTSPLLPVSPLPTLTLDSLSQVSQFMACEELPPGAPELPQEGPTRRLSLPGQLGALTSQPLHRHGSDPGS
Assay: hERG current blocking test
Conditions: IC50 of hERG divided by IC50 of CHK1 inhibition of Test Example 1
One number for each entry.

Known hERG/CHK1 results, listed for orientation:
>>> print(df.to_string())
                              sample_smiles                    target_under_test  parameter  quantitative_readout
0  COc1cncc(OC[C@@]2(F)CCNC2)c1-c1cc(Nc2cnc(C#N)cn2)n[nH]1  hERG current (Homo sapiens (Human))  hERG/CHK1                 12500
1  COc1cncc(OC[C@H](F)CN)c1-c1cc(Nc2cnc(C#N)cn2)n[nH]1  hERG current (Homo sapiens (Human))  hERG/CHK1                 40000

Item under review: COc1cncc(OC[C@@H](F)CN)c1-c1cc(Nc2cnc(C#N)cn2)n[nH]1 . Reported hERG/CHK1?
18667
